For each record, write down the corresponding GI50.
Tested on: SF-268 CNS

Input line: Annotate the compound CN1CCN(c2nc(-c3ccncc3)nc3sc4c(c23)CCCCCC4)CC1 with its measured GI50.
Output line: 5.34 µM

Input line: Annotate the compound Nc1ccc2c(c1)c(N)nn2C(=O)Nc1ccc(Cc2ccccc2)cc1 with its measured GI50.
Output line: 13 µM

Input line: Annotate the compound Cc1cc(Cl)ccc1Nc1nc(C(F)(F)F)ccc1C(=O)N1CCN(c2cccc(Cl)c2)CC1 with its measured GI50.
Output line: > 100 µM

Input line: Annotate the compound COc1cc([N+](=O)[O-])c2ncccc2c1[N+](=O)[O-] with its measured GI50.
Output line: 3.72 µM

Input line: Annotate the compound O=c1c2ccccc2oc2ccc(OCCCCCCN3CCCCCC3)cc12 with its measured GI50.
Output line: 4.35 µM

Input line: Annotate the compound OCNCCNc1nc2ccccc2c2[nH]c3ccccc3c12 with its measured GI50.
Output line: 1.36 µM

Input line: Annotate the compound O=c1cc(-c2ccccn2)[nH]c2ccc(Cl)cc12 with its measured GI50.
Output line: 23.4 µM

Input line: Annotate the compound CC1=C(C(=O)Nc2ccc(Cl)c(Cl)c2)C(c2ccccc2O)NC(=O)N1 (centres undefined) with its measured GI50.
Output line: 46.9 µM

Input line: Annotate the compound CC(=O)Oc1ccc(/C=N/NC(N)=S)nc1 with its measured GI50.
Output line: 1.91 µM

====

Tested on: ACHN renal
assay.text: NCI tumour cell line growth inhibition, 48 h
readout.name: TGI

Input line: Annotate the compound CCOC(=O)C(NC(=O)c1[nH]cnc1/N=N/N(C)C)C(C)C (centres undefined) with its measured TGI.
Output line: > 100 µM

Input line: Annotate the compound NCCOCC(N)C(=O)O (centres undefined) with its measured TGI.
Output line: > 100 µM

Input line: Annotate the compound Cc1cc2c(c(=O)n1C)SCC2 with its measured TGI.
Output line: > 100 µM

Input line: Annotate the compound CCCCCCCCCCCCCCCCOC(=O)c1cc(O)cc(C(=O)OCCCCCCCCCCCCCCCC)c1 with its measured TGI.
Output line: > 100 µM

Input line: Annotate the compound COc1cccc(C2NC(=S)NC(C)=C2C(=O)Nc2ccc(Cl)c(Cl)c2)c1 (centres undefined) with its measured TGI.
Output line: 23.2 µM

Input line: Annotate the compound Cc1ccccc1OC(C)C(=O)NN1C(=O)CC(=O)N(c2ccccc2)C1=S (centres undefined) with its measured TGI.
Output line: > 100 µM

Input line: Annotate the compound O=C(CC1Sc2ccccc2NC1=O)Nc1ccc(Cl)cc1 (centres undefined) with its measured TGI.
Output line: > 100 µM

Input line: Annotate the compound CC1(C)CC[C@]2(C(N)=O)CC[C@]3(C)C(=CC[C@@H]4[C@@]5(C)C/C(=C/c6ccncc6)C(=O)C(C)(C)[C@@H]5CC[C@]43C)[C@@H]2C1 with its measured TGI.
Output line: 4.33 µM

Input line: Annotate the compound Cn1c2ccccc2n2c3ncccc3c(=S)c(C#N)c12 with its measured TGI.
Output line: > 100 µM

Input line: Annotate the compound N#Cc1nc(C#N)n(C(=O)c2ccccc2)c1NC(=O)c1ccccc1 with its measured TGI.
Output line: > 100 µM

Input line: Annotate the compound CCOC(=O)[C@H]1Nc2ccccc2C2c3ccccc3CC21 (some centres undefined) with its measured TGI.
Output line: > 100 µM

Input line: Annotate the compound CN(C=O)/C=C/c1cc(O)ccc1O with its measured TGI.
Output line: 29.7 µM

Input line: Annotate the compound CC1=C(C(=O)Nc2ccc(Cl)c(Cl)c2)C(c2ccccc2O)NC(=O)N1 (centres undefined) with its measured TGI.
Output line: > 50 µM

Input line: Annotate the compound COc1cc(NC(=O)Nc2cnc(Nc3ccc(N4CCOCC4)cc3)nc2Oc2cccc(OC)c2)cc(OC)c1 with its measured TGI.
Output line: 6.84 µM

Input line: Annotate the compound CCOC(=O)C1COc2cc(-c3cc(=O)c4ccccc4o3)ccc2O1 (centres undefined) with its measured TGI.
Output line: > 100 µM

Input line: Annotate the compound CC(=O)OC1CC2C(=O)C(=O)C1(C)C2(C)C (centres undefined) with its measured TGI.
Output line: > 100 µM

Input line: Annotate the compound C=C1C(=O)O[C@H]2[C@H]3O[C@@H](C[C@@H]12)[C@](C)(O)CC[C@@H]1O[C@@]1(C)CCC[C@H]3C with its measured TGI.
Output line: 31.4 µM

Input line: Annotate the compound C/C(=N\Nc1nc2ccccc2[nH]1)c1cc2ccccc2cn1 with its measured TGI.
Output line: 0.638 µM

Input line: Annotate the compound CSc1ccc(C(=O)C(=O)c2ccc(SC)s2)s1 with its measured TGI.
Output line: > 10 µM

Input line: Annotate the compound CC(C)(C)C1CC[C@H](O)[C@H]([C@H](O)CC2CC(=O)N(c3ccccc3)C(=O)C2)C1 (some centres undefined) with its measured TGI.
Output line: > 100 µM

Input line: Annotate the compound N=C1C=C(N)C(=O)c2[nH]c(=O)ccc21 with its measured TGI.
Output line: 3.1 µM

Input line: Annotate the compound Oc1ccc(Cl)cc1Cc1cc(Cl)ccc1O with its measured TGI.
Output line: 11.3 µM

Input line: Annotate the compound Cc1cc2cc3c(cc2c(-c2ccc(N)cc2)n1)OCO3 with its measured TGI.
Output line: > 100 µM

Input line: Annotate the compound CCC(CC(C)C)Nc1ccc(NC(CC)CC(C)C)cc1 (centres undefined) with its measured TGI.
Output line: 28.5 µM

Input line: Annotate the compound CC1CC[C@]2(C(=O)O)CCC3(C)C(=CCC4[C@@]5(C)CC[C@H](OS(=O)(=O)c6ccccc6)C(C)(C)C5CC[C@]43C)[C@@H]2[C@H]1C (some centres undefined) with its measured TGI.
Output line: > 100 µM

Input line: Annotate the compound C#CCC1(C(=O)OCC)C(=O)c2ccccc2N(C)C1=O (centres undefined) with its measured TGI.
Output line: > 100 µM

Input line: Annotate the compound Nc1nc(Cl)cc(NCC2(O)CCCC2)n1 with its measured TGI.
Output line: > 100 µM

Input line: Annotate the compound CC1=NN(C(=O)c2ccccc2O)C(=O)/C1=C/c1cccc([N+](=O)[O-])c1 with its measured TGI.
Output line: > 100 µM

Input line: Annotate the compound COc1cc(/C=C(\C#N)C(N)=C(C#N)C#N)cc(O)c1O with its measured TGI.
Output line: > 100 µM

Input line: Annotate the compound O=[N+]([O-])c1ccc(C(Nc2ccccc2)c2ccc3cccnc3c2O)cc1 (centres undefined) with its measured TGI.
Output line: > 100 µM

Input line: Annotate the compound CCCCCCCCCCCCOP(N)(=O)OCCCCCCCCCCCC with its measured TGI.
Output line: > 100 µM

Input line: Annotate the compound OCNCCNc1nc2ccccc2c2[nH]c3ccccc3c12 with its measured TGI.
Output line: 2.24 µM

Input line: Annotate the compound C/C=C1\C(=O)OC2CCN3CCC(COC(=O)C(C)(O)C(C)C1O)C23 (centres undefined) with its measured TGI.
Output line: > 100 µM

Input line: Annotate the compound CC(=O)Oc1ccc2c(c1)CC[C@@H]1C2CC[C@]2(C)C(=O)NC(=O)CC12 (some centres undefined) with its measured TGI.
Output line: > 100 µM

Input line: Annotate the compound NS(=O)(=O)c1ccc(NNc2c3ccccc3nc3c(C(=O)Nc4ccc(S(=O)(=O)Nc5ncccn5)cc4)cccc23)cc1 with its measured TGI.
Output line: > 25 µM

Input line: Annotate the compound CN(C)c1ccc(/C=C2\N=C(c3ccccc3)N(c3ccc4c(c3)Sc3cc(N5C(=O)/C(=C/c6ccc(N(C)C)cc6)N=C5c5ccccc5)ccc3N4)C2=O)cc1 with its measured TGI.
Output line: 30.4 µM

Input line: Annotate the compound O=c1cc(NCc2ccncc2)[nH]c(=O)[nH]1 with its measured TGI.
Output line: > 100 µM

Input line: Annotate the compound C/C(CC(=O)N(C(C)C)C(C)C)=N\NC(=O)c1ccncc1 with its measured TGI.
Output line: > 100 µM

Input line: Annotate the compound C=C(C)[C@@H]1CC[C@]2(C(=O)O)CC[C@]3(C)[C@H](CCC4[C@@]5(C)CC[C@H](C(=O)/C=C/c6ccc(O)c(O)c6)C(C)(C)[C@@H]5CC[C@]43C)[C@@H]12 (some centres undefined) with its measured TGI.
Output line: 6.51 µM

Input line: Annotate the compound CC/C=C\C/C=C\C[C@H](O)C/C=C1/C(=O)C=C[C@@H]1C/C=C\CCCC(=O)OC with its measured TGI.
Output line: 3.4 µM

Input line: Annotate the compound COc1ccc(CCN2CCc3c(C)c(C#N)c4nc5ccccc5n4c32)cc1OC with its measured TGI.
Output line: > 100 µM

Input line: Annotate the compound O=c1cc(-c2ccccn2)[nH]c2ccc(Cl)cc12 with its measured TGI.
Output line: > 100 µM

Input line: Annotate the compound O=C1c2ccccc2-c2[nH]c3cn[nH]c(=O)c3c21 with its measured TGI.
Output line: > 100 µM

Input line: Annotate the compound O=C(c1ccco1)N(C(=S)OC12CC3CC(CC(C3)C1)C2)c1ccccc1 with its measured TGI.
Output line: 83.6 µM
